System: MS2 coat protein
test_description: apparent KD of MS2 coat protein; designed switch direction (-1 OFF switch, 1 ON switch): 1; higher = weaker reporter binding
assay_context: input ligand: FMN 200 uM
readout_label: apparent KD of MS2 coat protein

{"columns": ["seq", "meas_value"],
 "data": [
  ["GGUGGGUUACUACCAACACAUGAGGAUCACCCAUGUUUUGGGAAGGAUAUGGUACCUAUUUGGUACCAGAAGGUCCAGUUAGUG [salish99_SSNG3_r04_703] (Eterna round: R96, puzzle: Same State NG 3)", "0.0619 µM"]
]}

Kindly review the next sequence as well.
Form entry - test system: MS2 coat protein; read-out: apparent KD of MS2 coat protein; sequence: UUGAAGAAUUAAGGAUAUUGAGUACAUAUGUAAAACAUGAGGAUCACCCAUGUGGGUUGCGGUAUCGAGAAGGUAAAUUACUAG [Mat - same State NG 2 - JL mod - D69] (Eterna round: R96, puzzle: Same State NG 2) 0.0699 µM

---

Test system: MS2 coat protein
test_description: apparent KD of MS2 coat protein; designed switch direction (-1 OFF switch, 1 ON switch): -1; higher = weaker reporter binding
assay_context: input ligand: none
readout_label: apparent KD of MS2 coat protein (nM)
Answer format: numeric, nM implied, no suffix.

{"columns": ["seq", "tested_on", "unit_symbol", "meas_value"],
 "data": [
  ["GCAGCGUAUGUAGGAUAUCGGUCAGUUUCUGAUCGAGAAGGACAUGAGGAUCACCCAUGUGCGGUCAUGCGUGAGCAUGGCUGC [JL ENG1 3.74] (Eterna round: R96, puzzle: Exclusion NG 1)", "MS2 coat protein", "nM", 41.2],
  ["UGUUUACAUGAGGAUCACCCAUGUCAGGAUAUGAUAUAUAUAUGGAAACAUAUAUAUAUCAGAAGGGACUAGUG [Jieuxxlusion 1 - Jieux - Exclusion 1] (Eterna round: R97, puzzle: Exclusion 1)", "MS2 coat protein", "nM", 87.7]
]}

Form entry - test system: MS2 coat protein; read-out: apparent KD of MS2 coat protein; sequence: CGAGCUCAUGUGAGGAUAUACCUAUGGAUACAUAGGUAGAAGGCACAUGAGGAUCACCCAUGUCCUUGAGCUCG [jl-bmx4-4.59 Eli mod] (Eterna round: R97, puzzle: Brourd's mod of Exclusion 4) 50.4

---

Test system: MS2 coat protein
test_description: apparent KD of MS2 coat protein; designed switch direction (-1 OFF switch, 1 ON switch): -1; higher = weaker reporter binding
assay_context: Eterna round: R95; input ligand: none
readout_label: apparent KD of MS2 coat protein

These recorded examples may help you get a feel for the data.
{"columns": ["seq", "apparent KD of MS2 coat protein"],
 "data": [
  ["AAUAAGAGAGGAUAUACUAAAAUAUGAAUAAAAUAAAUAAAACAUGAGGAUCACCCAUGUAGAAGGCUCAAUAA [JMF's Not so obvious solution 6] (puzzle: Exclusion 2)", "24.7 nM"],
  ["AGUAACUAUCACGAAAGUGAUAGUUACACAAGCAGUGAAACAUGAGGAUCACCCAUGUCCUCAAUUGCUCGUCUUAU [Sensor 3 - 31] (puzzle: Sensor v3, turn-off variant 2)", "49.6 nM"]
]}

Value lookup for apparent KD of MS2 coat protein; key = AAAUACAAGUAAGGAUUCUACAUGAGGAUCACCCAUGUGCUCGUCUUAUAAAGUACUAUCACGAAAGUGAUAGUACA [Sensor 3, v1 - 38] (puzzle: Sensor v3, turn-off variant 1) 26.2 nM
